# Procedure Summary: Part B: single-dose PK of 20 mg zanubrutinib alone and with steady-state itraconazole (CYP3A inhibition) in healthy subjects
# Type: in vivo, human
# Stated Conditions: both sexes, human, plasma, po, 20 mg, 20 mg zanubrutinib alone, single oral dose, fasted, Day 1; geometric mean (CV%)
Experimental Readout: AUC(0-inf) (ng·h/mL)
Only the number, expressed in ng·h/mL, is required.

Prompt line: Given the molecule C=CC(=O)N1CCC([C@@H]2CCNc3c(C(N)=O)c(-c4ccc(Oc5ccccc5)cc4)nn32)CC1 , write its reported AUC(0-inf).
Response line: 184

----------
# Procedure Summary: Part B: single-dose PK of 20 mg zanubrutinib alone and with steady-state itraconazole (CYP3A inhibition) in healthy subjects
# Format: in vivo, human
# Stated Conditions: both sexes, human, plasma, oral, 20 mg, Asian subjects, Part B Day 1, 20 mg zanubrutinib alone; geometric mean (CV%)
Experimental Readout: AUC(0-inf) (ng·h/mL)
// return numeric value only (unit: ng·h/mL, not printed)

Prompt line: Please indicate AUC(0-inf) recorded for C=CC(=O)N1CCC([C@@H]2CCNc3c(C(N)=O)c(-c4ccc(Oc5ccccc5)cc4)nn32)CC1
Response line: 174

----------
# Procedure Summary: Part A: single-dose PK of 320 mg zanubrutinib alone and with steady-state rifampin (CYP3A induction) in healthy subjects
# Format: in vivo, human
# Stated Conditions: both sexes, human, plasma, oral, 320 mg, Asian subjects, Part A Day 1, 320 mg zanubrutinib alone; geometric mean (CV%)
Experimental Readout: AUC(0-inf) (ng·h/mL)
Number only, in ng·h/mL; omit the unit.

Prompt line: Quote AUC(0-inf) reported for C=CC(=O)N1CCC([C@@H]2CCNc3c(C(N)=O)c(-c4ccc(Oc5ccccc5)cc4)nn32)CC1 please.
Response line: 3460

----------
# Procedure Summary: Part A: single-dose PK of 320 mg zanubrutinib alone and with steady-state rifampin (CYP3A induction) in healthy subjects
# Type: in vivo, human
# Stated Conditions: both sexes, human, plasma, oral; 320 mg zanubrutinib + 600 mg rifampin QD; geometric mean (CV%)
# Protocol: This was an open-label, parallel-group, fixed-sequence study in healthy male and female subjects conducted in two parts, Part A and Part B. Part A investigated the effect of CYP3A induction by steady-state rifampin on the single-dose PK of 320 mg zanubrutinib, and Part B investigated the effect of CYP3A inhibition by steady-state itraconazole on the single-dose PK of 20 mg zanubrutinib. […]
Experimental Readout: half-life (h)
Quick reminder: number only, in h, skip the unit.

Prompt line: Name the recorded half-life of the item C=CC(=O)N1CCC([C@@H]2CCNc3c(C(N)=O)c(-c4ccc(Oc5ccccc5)cc4)nn32)CC1 in your answer.
Response line: 4.8

----------
# Procedure Summary: Part B: single-dose PK of 20 mg zanubrutinib alone and with steady-state itraconazole (CYP3A inhibition) in healthy subjects
# Format: in vivo, human
# Stated Conditions: both sexes, human, plasma, oral, Asian subjects, Part B Day 6, zanubrutinib + itraconazole; geometric mean (CV%)
Experimental Readout: AUC(0-inf) (ng·h/mL)
Field: numeric (ng·h/mL). Do not append units.

Prompt line: Quickly give me recorded AUC(0-inf) for C=CC(=O)N1CCC([C@@H]2CCNc3c(C(N)=O)c(-c4ccc(Oc5ccccc5)cc4)nn32)CC1 [zanubrutinib, Zanubrutinib]
Response line: 694

----------
# Procedure Summary: Part B: single-dose PK of 20 mg zanubrutinib alone and with steady-state itraconazole (CYP3A inhibition) in healthy subjects
# Format: in vivo, human
# Stated Conditions: both sexes, human, plasma, oral, 20 mg, Non-Asian subjects, Part B Day 1, 20 mg zanubrutinib alone; geometric mean (CV%)
Experimental Readout: Cmax (ng/mL)
Write the answer as a number in ng/mL, unit excluded.

Prompt line: Look up Cmax of C=CC(=O)N1CCC([C@@H]2CCNc3c(C(N)=O)c(-c4ccc(Oc5ccccc5)cc4)nn32)CC1 [zanubrutinib, Zanubrutinib] and report it.
Response line: 46

----------
# Procedure Summary: Part A: single-dose PK of 320 mg zanubrutinib alone and with steady-state rifampin (CYP3A induction) in healthy subjects
# Assay type: in vivo, human
# Stated Conditions: both sexes, human, plasma, oral, 320 mg, Asian subjects, Part A Day 1, 320 mg zanubrutinib alone; geometric mean (CV%)
# Method: This was an open-label, parallel-group, fixed-sequence study in healthy male and female subjects conducted in two parts, Part A and Part B. Part A investigated the effect of CYP3A induction by steady-state rifampin on the single-dose PK of 320 mg zanubrutinib, and Part B investigated the effect of CYP3A inhibition by steady-state itraconazole on the single-dose PK of 20 mg zanubrutinib. […]
Experimental Readout: Cmax (ng/mL)
Express the result in ng/mL but write the number alone.

Prompt line: Retrieve Cmax measured for C=CC(=O)N1CCC([C@@H]2CCNc3c(C(N)=O)c(-c4ccc(Oc5ccccc5)cc4)nn32)CC1 and print it.
Response line: 543

----------
# Procedure Summary: Part B: single-dose PK of 20 mg zanubrutinib alone and with steady-state itraconazole (CYP3A inhibition) in healthy subjects
# Type: in vivo, human
# Stated Conditions: both sexes, human, plasma, oral; 20 mg zanubrutinib + 200 mg itraconazole QD; median (min–max)
Experimental Readout: Tmax (h)
Report only the number, with the unit h understood.

Prompt line: Give reported Tmax value for C=CC(=O)N1CCC([C@@H]2CCNc3c(C(N)=O)c(-c4ccc(Oc5ccccc5)cc4)nn32)CC1
Response line: 2

----------
# Procedure Summary: Part B: single-dose PK of 20 mg zanubrutinib alone and with steady-state itraconazole (CYP3A inhibition) in healthy subjects
# Format: in vivo, human
# Stated Conditions: both sexes, human, plasma, oral, Asian subjects, Part B Day 6, zanubrutinib + itraconazole; geometric mean (CV%)
Experimental Readout: Cmax (ng/mL)
The reply should contain only the number, in ng/mL.

Prompt line: For the compound C=CC(=O)N1CCC([C@@H]2CCNc3c(C(N)=O)c(-c4ccc(Oc5ccccc5)cc4)nn32)CC1 , give its reported Cmax.
Response line: 124

----------
# Procedure Summary: Part A: single-dose PK of 320 mg zanubrutinib alone and with steady-state rifampin (CYP3A induction) in healthy subjects
# Format: in vivo, human
# Stated Conditions: both sexes, human, plasma, oral; 320 mg zanubrutinib alone; geometric mean (CV%)
Experimental Readout: half-life (h)
Give the value in h but do not write h after it.

Prompt line: Using known records, supply half-life for C=CC(=O)N1CCC([C@@H]2CCNc3c(C(N)=O)c(-c4ccc(Oc5ccccc5)cc4)nn32)CC1 [zanubrutinib, Zanubrutinib]
Response line: 6.8

----------
# Procedure Summary: Part A: single-dose PK of 320 mg zanubrutinib alone and with steady-state rifampin (CYP3A induction) in healthy subjects
# Type: in vivo, human
# Stated Conditions: both sexes, human, plasma, po, 320 mg, 320 mg zanubrutinib alone, single oral dose, fasted, Day 1; geometric mean (CV%)
Experimental Readout: AUC(0-inf)
Give the number first and the unit second.

Prompt line: Fill in AUC(0-inf) for record C=CC(=O)N1CCC([C@@H]2CCNc3c(C(N)=O)c(-c4ccc(Oc5ccccc5)cc4)nn32)CC1
Response line: 3520 ng·h/mL

----------
# Procedure Summary: Part A: single-dose PK of 320 mg zanubrutinib alone and with steady-state rifampin (CYP3A induction) in healthy subjects
# Format: in vivo, human
# Stated Conditions: both sexes, human, plasma, oral, 320 mg, 320 mg zanubrutinib alone, Day 1; geometric mean (CV%)
Experimental Readout: Cmax (ng/mL)
Note: unit ng/mL is implicit; provide only the numeric part.

Prompt line: Tell me measured Cmax for C=CC(=O)N1CCC([C@@H]2CCNc3c(C(N)=O)c(-c4ccc(Oc5ccccc5)cc4)nn32)CC1 please.
Response line: 532

----------
# Procedure Summary: Part B: single-dose PK of 20 mg zanubrutinib alone and with steady-state itraconazole (CYP3A inhibition) in healthy subjects
# Format: in vivo, human
# Stated Conditions: both sexes, human, plasma, oral, Non-Asian subjects, Part B Day 6, zanubrutinib + itraconazole; geometric mean (CV%)
Experimental Readout: Cmax (ng/mL)
Answer in ng/mL, number only, no unit symbol.

Prompt line: Using known records, supply Cmax for C=CC(=O)N1CCC([C@@H]2CCNc3c(C(N)=O)c(-c4ccc(Oc5ccccc5)cc4)nn32)CC1 [zanubrutinib, Zanubrutinib]
Response line: 120

----------
# Procedure Summary: Part B: single-dose PK of 20 mg zanubrutinib alone and with steady-state itraconazole (CYP3A inhibition) in healthy subjects
# Type: in vivo, human
# Stated Conditions: both sexes, human, plasma, oral, 20 mg, Non-Asian subjects, Part B Day 1, 20 mg zanubrutinib alone; geometric mean (CV%)
Experimental Readout: AUC(0-inf)
Answer format: value, then unit.

Prompt line: In one line, give reported AUC(0-inf) of the entry C=CC(=O)N1CCC([C@@H]2CCNc3c(C(N)=O)c(-c4ccc(Oc5ccccc5)cc4)nn32)CC1 [zanubrutinib, Zanubrutinib] .
Response line: 192 ng·h/mL

----------
# Procedure Summary: Part A: single-dose PK of 320 mg zanubrutinib alone and with steady-state rifampin (CYP3A induction) in healthy subjects
# Format: in vivo, human
# Stated Conditions: both sexes, human, plasma, oral, 320 mg, Non-Asian subjects, Part A Day 1, 320 mg zanubrutinib alone; geometric mean (CV%)
Experimental Readout: AUC(0-inf) (ng·h/mL)
# unit: ng·h/mL | format: bare number

Prompt line: Item C=CC(=O)N1CCC([C@@H]2CCNc3c(C(N)=O)c(-c4ccc(Oc5ccccc5)cc4)nn32)CC1 [zanubrutinib, Zanubrutinib] : provide AUC(0-inf)
Response line: 3410
